Please respond with reported TGI for every item in the list.
System: MDA-MB-231 breast
Experiment: NCI tumour cell line growth inhibition, 48 h
Give bare numbers, in µM.

# count of solved cases: 2
Cn1c(-c2csc(-c3ccc(Cl)cc3)n2)n[nH]c1=S: 69.4
COc1cccc(/C=C/C(=O)c2ccc(Cl)cc2Cl)c1OC: 27.8

--- query ---
// field: TGI; key: Cc1cc2c(cc1O)CC[C@@H]1[C@@H]2CC[C@]2(C)[C@@H](O)CC[C@@H]12 ; value = 21.8

###

System: PC-3 prostate
Experiment: NCI tumour cell line growth inhibition, 48 h
Please respond with reported TGI for every item in the list.
One number for each entry, in µM.

# count of solved cases: 2
C#CC(O)/C=C/CCCCCCC#CC/C=C\CC#CCCCCCC/C=C/C(O)C#C (stereo not given): 24.4
O=C1C(Cl)=C(Nc2ccc3cn[nH]c3c2)C(=O)c2ccccc21: 2.44

--- query ---
// field: TGI; key: COC(=O)c1ccccc1NC(=O)C(=O)CC(=O)c1ccccc1NC1=CC(=O)C(=O)c2ccccc21 ; value = 42.3

###

Please respond with reported TGI for every item in the list.
Test system: DMS 273 small cell lung
Assay: NCI tumour cell line growth inhibition, 48 h

# count of solved cases: 3
Cc1cc(Cc2cc(C)c(NC(=O)C(=O)C3C(=O)NC(=S)NC3=O)c(C(C)C)c2)cc(C(C)C)c1NC(=O)C(=O)C1C(=O)NC(=S)NC1=O: > 100 µM
COC(=O)c1ccccc1NC(=O)C(=O)CC(=O)c1ccccc1NC1=CC(=O)C(=O)c2ccccc21: 25.8 µM
CC(=O)NNc1nc(C)c(C(/C=C/c2ccc(Cl)cc2)=N\NS(=O)(=O)c2ccc(C)cc2)s1: > 100 µM

--- query ---
// field: TGI; key: CCOc1ccccc1NC(=O)CCc1nnc2s/c(=C\CCc3ccccc3)c(=O)n12 ; value = > 100 µM

###

Test system: OVCAR-4 ovarian
Experiment: NCI tumour cell line growth inhibition, 48 h
quantity measured: GI50

COc1cc2c3c(n(CCN)c(=O)c2cc1OC)-c1cc2c(cc1C3=O)OCO2: 1.43 µM

For every record below, what is its GI50?
1. O=C1c2ccccc2S(=O)(=O)N1CSC(=S)N1CCCC1
2. C=C(CNCCc1ccc(O)cc1)[C@@H]1CC[C@]2(CO)CC[C@]3(C)[C@H](CC[C@@H]4[C@@]5(C)CCC(=O)C(C)(C)[C@@H]5CC[C@]43C)[C@@H]12
3. COc1ncc(-c2nc3c(n2C(C)C)[C@H](c2ccc(Cl)cc2)N(c2cc(Cl)cn(C)c2=O)C3=O)c(OC)n1

["> 51.7 µM", "1.65 µM", "29.2 µM"]

For every record below, what is its GI50?
1. C/C=C(\C)C(=O)O[C@@H]1C(O)[C@H]2OC(COC(=O)CCC(=O)CCCCCC[C@H](CCCCC)O[C@@H]3OC(C)[C@H](OC(C)=O)C(O)[C@H]3O2)[C@H]1OC(=O)/C=C/c1ccccc1 (some centres not stated)
2. N#C/C(=C\c1ccc(Br)cc1)n1nnc2cccc(F)c21
3. Nc1c(C(=O)c2cccc(OCCN3CCOCC3)c2)cnn1-c1ccc(F)cc1
4. COc1cccc(/C=C/C(=O)c2ccc(Cl)cc2Cl)c1OC
5. NC1=NC(c2ccccc2)N=C(Nc2ccccc2)N1 (configuration not stated)
6. N#C/C(=C/C=C(\Cl)c1ccc(Cl)cc1)C(N)=O

1: 1.74 µM; 2: 1.65 µM; 3: > 25 µM; 4: 11.3 µM; 5: > 100 µM; 6: 4.91 µM

For every record below, what is its GI50?
1. O=C(Oc1ccc([N+](=O)[O-])cc1)N1CCN(Cc2cccc(Oc3ccccc3)c2)CC1
2. CN1CCN(CC(=O)Nc2ccc3ncnc(Nc4ccc(Oc5cccc(C(F)(F)F)c5)c(Cl)c4)c3c2)CC1

1. > 44.8 µM
2. 1.51 µM
